- STUDY_TARGET: full-length beta-Catenin (Uniprot ID P35222) (Homo sapiens (Human)) (UniProt P35222)
- TEST_METHOD_NOTES: fluorescence polarization competition against 5FAM-TCF4 10-53 on full-length beta-catenin
pIC50: −log10 of the molar value. Starred links: 1 amine or outer side, 2 acyl side, 3 side chain; linkers in the order of their positions; H or OH if unused. Positions of bridges follow the written chain, without caps; N, C: chain ends. Non-standard residues stand in square brackets, D forms with d. Primed or numbered codes have the meaning given here. PyrS2″ = (S)-3-amino-1-((pent-4-en-1-yloxy)carbonyl)pyrrolidine-3-carboxylic acid (stapling residue), C=CCCCOC(=O)N1CC[C@@](N[*:1])(C(=O)[*:2])C1; (CH2CH2CO2H)TriAzDap = (S)-2-amino-3-(4-(2-carboxyethyl)-1H-1,2,3-triazol-1-yl)propanoic acid, O=C([C@H](Cn1cc(CCC(=O)[*:3])nn1)N[*:1])[*:2]; B5(4) = 2,2-bis(4-pentenyl)glycine = 2-amino-2-(pent-4-en-1-yl)hept-6-enoic acid (stitching residue), C=CCCCC(CCCC=C)(N[*:1])C(=O)[*:2]; PyrS2 = (S)-3-amino-1-((pent-4-en-1-yloxy)carbonyl)pyrrolidine-3-carboxylic acid, C=CCCCOC(=O)N1CC[C@@](N[*:1])(C(=O)[*:2])C1; Phe(2-CF3) = N[C@@H](Cc1ccccc1C(F)(F)F)C(=O)O; Bta = N[C@@H](Cc1csc2ccccc12)C(=O)O; Lys(iPr) = CC(C)NCCCC[C@H](N)C(=O)O; αAllylPro = C=CC[C@@]1(C(=O)O)CCCN1; tBuAla = CC(C)(C)C[C@H](N)C(=O)O; 3Thi = N[C@@H](Cc1ccsc1)C(=O)O
VALUE_TYPE: pIC50

Ac-[αAllylPro]N[tBuAla][B5(4)]DT[Lys(iPr)]AFW[PyrS2]F[Bta]Q-NH2 (staple 1-4, 4-11) [I-1600] | 5.37

1. Ac-[αAllylPro]D[tBuAla][B5(4)]NTAAFL[PyrS2″][3Thi][Bta]Q-NH2 (staple 1-4, 4-11) [I-1618]
2. Ac-[αAllylPro]D[tBuAla][B5(4)]D[(CH2CH2CO2H)TriAzDap]QAFL[PyrS2″][Phe(2-CF3)][Bta]A-NH2 (staple 1-4, 4-11) [I-2367]
Could you check which of 1 and 2 has a smaller value for pIC50? // output: label of the selected item
1
